Biological target: human progesterone receptor B (PR-B) (Homo sapiens, UniProt P06401)
Construct: expressed in transfected cells; host or cells: SK-N-MC human neuroblastoma cells, stably transfected with pRChPR-B-neo and pMMTV-LUC
Sequence (P06401 whole entry): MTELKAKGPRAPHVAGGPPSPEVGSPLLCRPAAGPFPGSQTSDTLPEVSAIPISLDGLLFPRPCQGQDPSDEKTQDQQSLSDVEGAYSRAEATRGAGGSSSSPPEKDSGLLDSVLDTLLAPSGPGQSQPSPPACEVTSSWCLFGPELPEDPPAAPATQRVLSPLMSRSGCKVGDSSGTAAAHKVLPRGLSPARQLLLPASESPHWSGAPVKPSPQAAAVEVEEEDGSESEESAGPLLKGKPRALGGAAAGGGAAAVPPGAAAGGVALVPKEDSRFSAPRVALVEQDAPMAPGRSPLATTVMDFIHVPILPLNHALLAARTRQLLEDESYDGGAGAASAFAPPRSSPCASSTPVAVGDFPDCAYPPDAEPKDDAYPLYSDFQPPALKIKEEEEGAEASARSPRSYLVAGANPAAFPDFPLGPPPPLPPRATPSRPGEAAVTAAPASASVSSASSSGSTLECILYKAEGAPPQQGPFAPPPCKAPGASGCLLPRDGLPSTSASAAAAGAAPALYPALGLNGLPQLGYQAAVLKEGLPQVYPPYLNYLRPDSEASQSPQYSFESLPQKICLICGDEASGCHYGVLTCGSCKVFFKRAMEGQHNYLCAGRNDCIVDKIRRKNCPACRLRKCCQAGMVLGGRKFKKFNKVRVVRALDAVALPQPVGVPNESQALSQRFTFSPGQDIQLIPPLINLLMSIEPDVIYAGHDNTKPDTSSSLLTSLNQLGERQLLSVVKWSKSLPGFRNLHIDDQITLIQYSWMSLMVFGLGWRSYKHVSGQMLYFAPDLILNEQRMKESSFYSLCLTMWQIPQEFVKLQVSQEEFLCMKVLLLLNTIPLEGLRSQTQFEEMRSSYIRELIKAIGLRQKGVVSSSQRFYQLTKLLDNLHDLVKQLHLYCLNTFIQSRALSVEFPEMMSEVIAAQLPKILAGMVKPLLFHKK
Assay: Agonistic activity, MTV-LUC reporter in SK-N-MC cells stably transfected with PR-B
Type: cell-based
Details: 24 hours, mean ± SD, read-out: Potency EC50, PR-B
REPORTED PROPERTY: pEC50
Scale explanation: pEC50 corresponds to minus log10 of a concentration expressed in moles per litre.

Short answer for CCC(=O)[C@@]1(C)CC[C@H]2[C@@H]3CCC4=CC(=O)CCC4=C3CC[C@@]21C [Promegestone, promegestone, reference compound] : pEC50 was 10.52
